Listing: fold change of affinity of selected binders
Molecular target: T1, Human CD3eg linker (human)
T1 construct: Single chain: epsilon and gamma subunits of human CD3 joined by a 29-mer linker, Flag-tag at the C-terminus; also called recombinant human CD3
T1 chain: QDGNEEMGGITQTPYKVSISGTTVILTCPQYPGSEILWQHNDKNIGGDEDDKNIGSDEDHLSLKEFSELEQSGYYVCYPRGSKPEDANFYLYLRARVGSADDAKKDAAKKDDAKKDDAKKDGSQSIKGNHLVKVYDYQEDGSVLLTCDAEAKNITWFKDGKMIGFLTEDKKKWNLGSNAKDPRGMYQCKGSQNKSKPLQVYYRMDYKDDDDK
Experiment: Biacore SPR, vs template H183/L072

{"columns": ["binder", "result-unit", "fold change of affinity"],
 "data": [
  ["H183/L072 VH N53H (antibody, name in Kabat numbering, V domains shown) VH: QVQLVESGGGLVQPGRSLRLSCAASGFTFSNAWMHWVRQAPGKGLEWVAQIKDKGHAYAAYYAPSVKGRFTISRDDSKNSIYLQMNSLKTEDTAVYYCHYVHYASASTVLPAFGVDAWGQGTTVTVSS VL: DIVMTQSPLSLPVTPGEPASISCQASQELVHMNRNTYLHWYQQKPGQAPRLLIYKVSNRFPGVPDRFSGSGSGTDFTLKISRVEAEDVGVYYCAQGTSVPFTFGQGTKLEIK", "fold", 1.1],
  ["H183/L072 VH A100M (antibody, name in Kabat numbering, V domains shown) VH: QVQLVESGGGLVQPGRSLRLSCAASGFTFSNAWMHWVRQAPGKGLEWVAQIKDKGNAYAAYYAPSVKGRFTISRDDSKNSIYLQMNSLKTEDTAVYYCHYVHYASMSTVLPAFGVDAWGQGTTVTVSS VL: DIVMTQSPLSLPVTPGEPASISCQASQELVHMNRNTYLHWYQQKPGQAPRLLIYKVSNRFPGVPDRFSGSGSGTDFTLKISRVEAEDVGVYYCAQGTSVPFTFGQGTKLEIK", "fold", 1],
  ["H183/L072 VH V100iL (antibody, name in Kabat numbering, V domains shown) VH: QVQLVESGGGLVQPGRSLRLSCAASGFTFSNAWMHWVRQAPGKGLEWVAQIKDKGNAYAAYYAPSVKGRFTISRDDSKNSIYLQMNSLKTEDTAVYYCHYVHYASASTVLPAFGLDAWGQGTTVTVSS VL: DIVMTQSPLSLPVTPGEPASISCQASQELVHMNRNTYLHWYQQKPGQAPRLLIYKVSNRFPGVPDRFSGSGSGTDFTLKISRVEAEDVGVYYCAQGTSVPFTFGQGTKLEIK", "fold", 1.8]
]}
